Reported melting point values follow for various compounds

C=C(C)CC(C)(Cc1cccc(F)c1)C(=O)Nc1cnc2c(F)cccc2c1 (stereo not shown) [Compound E-11]    125 to 127 °C

Which melting point reading was recorded for the compound CC(C)=CC(C)(Cc1ccccc1)C(=O)Nc1cnc2c(F)cccc2c1 (stereo not shown) [Compound E-48] ?
167 to 169 °C

Which melting point reading was recorded for the compound Cc1c(NC(=O)C(C)(Cc2ccccc2)CC2(C)CC2)cnc2c(F)cccc12 (stereo not shown) [Compound E-100] ?
163 to 164 °C

Which melting point reading was recorded for the compound CC(Cc1ccccc1)(CC1(F)CC1)C(=O)Nc1cnc2c(F)cccc2c1 (stereo not shown) [Compound E-25] ?
162 to 164 °C

Which melting point reading was recorded for the compound CC(Cc1ccccc1)(CC1CC1)C(=O)Nc1cnc2c(F)cccc2c1 (stereo not shown) [Compound E-76] ?
157 to 159 °C

Which melting point reading was recorded for the compound C=C(C)CC(C)(Cc1ccccc1)C(=O)Nc1cnc2c(Br)cccc2c1 (stereo not shown) [Compound E-63] ?
165 to 169 °C

Which melting point reading was recorded for the compound C=C(Cl)CC(C)(Cc1ccccc1)C(=O)Nc1cnc2c(F)cccc2c1 (stereo not shown) [Compound E-53] ?
148 to 150 °C

Which melting point reading was recorded for the compound Cc1c(NC(=O)C(C)(Cc2ccccc2)CC(C)C)cnc2c(Cl)cccc12 (stereo not shown) [Compound E-14] ?
124 to 126 °C

Which melting point reading was recorded for the compound C=C(Cl)CC(C)(Cc1ccccc1)C(=O)Nc1cnc2c(F)cccc2c1C (stereo not shown) [Compound E-20] ?
124 to 126 °C

Which melting point reading was recorded for the compound COCN(C(=O)C(C)(Cc1ccccc1)CC(F)(F)F)c1cnc2c(F)cccc2c1 (stereo not shown) [Compound E-33] ?
108 to 110 °C

Which melting point reading was recorded for the compound C=C(C)CC(Cc1ccccc1)C(=O)Nc1cnc2c(F)cccc2c1 (stereo not shown) [Compound E-94] ?
170 to 172 °C

Which melting point reading was recorded for the compound CC(Cc1ccccc1)(CC(F)(F)F)C(=O)Nc1cnc2c(Cl)cccc2c1 (stereo not shown) [Compound E-51] ?
104 to 106 °C

Which melting point reading was recorded for the compound Cc1c(NC(=O)C(Cc2ccccc2)CC(C)(C)C)cnc2c(F)cccc12 (stereo not shown) [Compound E-96] ?
135 to 136 °C

Which melting point reading was recorded for the compound C=C(C)CC(C)(Cc1cccc(F)c1)C(=O)Nc1cc2cccc(F)c2nc1C (stereo not shown) [Compound E-12] ?
124 to 126 °C

Which melting point reading was recorded for the compound CC#CCC(Cc1ccccc1)C(=O)Nc1cnc2c(F)cccc2c1 (stereo not shown) [Compound E-29] ?
218 to 220 °C

Which melting point reading was recorded for the compound Cc1cccc2cc(NC(=O)C(C)(Cc3ccccc3)CC(F)(F)F)cnc12 (stereo not shown) [Compound E-59] ?
123 to 125 °C

Which melting point reading was recorded for the compound CC(Cc1ccccc1)(CC(F)(F)F)C(=O)Nc1cnc2cccc(F)c2c1 (stereo not shown) [Compound E-49] ?
140 to 142 °C

Which melting point reading was recorded for the compound CC(C)CC(C)(Cc1ccccc1)C(=O)Nc1cnc2ccccc2c1 (stereo not shown) [Compound E-85] ?
147 to 148 °C

Which melting point reading was recorded for the compound Cc1c(NC(=O)C(C)(Cc2ccccc2)CC(F)(F)F)cnc2c(Cl)cccc12 (stereo not shown) [Compound E-15] ?
73 to 75 °C

Which melting point reading was recorded for the compound C=C(C)CC(Cc1ccccc1)C(=O)Nc1cnc2c(F)cccc2c1C (stereo not shown) [Compound E-93] ?
116 to 118 °C

Which melting point reading was recorded for the compound C=C(F)CC(C)(Cc1ccccc1)C(=O)Nc1cnc2c(F)cccc2c1 (stereo not shown) [Compound E-71] ?
132 to 134 °C

Which melting point reading was recorded for the compound C=C(CC)CC(C)(Cc1ccccc1)C(=O)Nc1cnc2c(F)cccc2c1 (stereo not shown) [Compound E-54] ?
118 to 120 °C

Which melting point reading was recorded for the compound Cc1nc2c(F)cccc2cc1NC(=O)C(Cc1ccccc1)CC1(C)CC1 (stereo not shown) [Compound E-89] ?
162 to 163 °C
